Please respond with reported Dry Substance 1st-5th Cutting for every item in the list.
- System: rye grass
- Assay Method Text: Pot experiments with rye grass, urea as soil fertilizer with various urease inhibitors (Table 6)
- Assay type: in vivo
- Particulars: urea four times 1.0 g N/pot; inhibitor 2% of the urea quantity; loamy sand pH 5.6
- Description: The results of the tests in Mitscherlich pots are compiled in Tables 6 and 7. In Table 6 the various urease inhibitors as urea additives for soil fertilization are compared with one another. Both in overall crop yield as well as in N absorption and in raw protein content, the best results are achieved with bromo-nitro compounds. The maleic derivatives and the quinone product furnish poorer results. […]
Quick note: number first, unit second.

Would you mind telling me what Dry Substance 1st-5th Cutting value was observed for O=C1C=CC(=O)C=C1 ? 118.3 g/Pot

Would you mind telling me what Dry Substance 1st-5th Cutting value was observed for O=[N+]([O-])C(Br)(CO)CO ? 128.6 g/Pot

Would you mind telling me what Dry Substance 1st-5th Cutting value was observed for O=C(Nc1ccccc1)OCN1C(=O)C=CC1=O [Subst. 68-Tab. 1, N--Methylolmaleinimide phenyl urethane] ? 124.0 g/Pot

Would you mind telling me what Dry Substance 1st-5th Cutting value was observed for CC(=O)OCN1C(=O)C=CC1=O [Subst. 48-Tab. 1, N--Acetoximethylmaleinimide] ? 129.7 g/Pot

----------
- System: rye grass
- Assay Method Text: Pot experiments with rye grass, urea as soil fertilizer with various urease inhibitors (Table 6)
- Assay type: in vivo
- Particulars: urea four times 1.0 g N/pot; inhibitor 2% of the urea quantity; loamy sand pH 5.6
Please respond with reported Raw Protein % in Dry Substance for every item in the list.
Kindly answer with a numeric value in %, unit omitted.

Would you mind telling me what Raw Protein % in Dry Substance value was observed for CNC(=O)OCC(C)(Br)[N+](=O)[O-] (stereo not shown) ? 15.6

Would you mind telling me what Raw Protein % in Dry Substance value was observed for CC(=O)OCN1C(=O)C=CC1=O [Subst. 48-Tab. 1, N--Acetoximethylmaleinimide] ? 13.7

Would you mind telling me what Raw Protein % in Dry Substance value was observed for O=C1C=CC(=O)C=C1 ? 13.4

Would you mind telling me what Raw Protein % in Dry Substance value was observed for O=C(Nc1ccccc1)OCN1C(=O)C=CC1=O [Subst. 68-Tab. 1, N--Methylolmaleinimide phenyl urethane] ? 14.3

Would you mind telling me what Raw Protein % in Dry Substance value was observed for O=[N+]([O-])C(Br)(CO)CO ? 15.3

Would you mind telling me what Raw Protein % in Dry Substance value was observed for O=C1C=CC(=O)N1CO [Subst. 66-Tab. 1, N--Methylolmaleinimide] ? 14.3

Would you mind telling me what Raw Protein % in Dry Substance value was observed for CC(Br)(CO)[N+](=O)[O-] (stereo not shown) ? 15.1

----------
- Test system: rye grass
- Assay Method Text: Pot experiments with rye grass, urea as soil fertilizer with various urease inhibitors (Table 6)
- Format: in vivo
- Particulars: urea four times 1.0 g N/pot; inhibitor 2% of the urea quantity; loamy sand pH 5.6
Please respond with reported Dry Substance 1st-5th Cutting for every item in the list.
Kindly answer with a numeric value in g/Pot, unit omitted.

Would you mind telling me what Dry Substance 1st-5th Cutting value was observed for CNC(=O)OCC(C)(Br)[N+](=O)[O-] (stereo not drawn) [Subst. 1-Tab. 3] ? 131.7

Would you mind telling me what Dry Substance 1st-5th Cutting value was observed for O=C1C=CC(=O)N1CO [Subst. 66-Tab. 1, N--Methylolmaleinimide] ? 125.0

Would you mind telling me what Dry Substance 1st-5th Cutting value was observed for CC(Br)(CO)[N+](=O)[O-] (stereo not drawn) [Subst. 4-Tab. 3, 2-Bromo-2-nitro-propanol] ? 127.8
